Target: AHR (Homo sapiens, UniProt P35869)
Construct: endogenous in cells; host or cells: HepG2 (human), transfected with a DRE-luciferase reporter only
Sequence (P35869 11-848): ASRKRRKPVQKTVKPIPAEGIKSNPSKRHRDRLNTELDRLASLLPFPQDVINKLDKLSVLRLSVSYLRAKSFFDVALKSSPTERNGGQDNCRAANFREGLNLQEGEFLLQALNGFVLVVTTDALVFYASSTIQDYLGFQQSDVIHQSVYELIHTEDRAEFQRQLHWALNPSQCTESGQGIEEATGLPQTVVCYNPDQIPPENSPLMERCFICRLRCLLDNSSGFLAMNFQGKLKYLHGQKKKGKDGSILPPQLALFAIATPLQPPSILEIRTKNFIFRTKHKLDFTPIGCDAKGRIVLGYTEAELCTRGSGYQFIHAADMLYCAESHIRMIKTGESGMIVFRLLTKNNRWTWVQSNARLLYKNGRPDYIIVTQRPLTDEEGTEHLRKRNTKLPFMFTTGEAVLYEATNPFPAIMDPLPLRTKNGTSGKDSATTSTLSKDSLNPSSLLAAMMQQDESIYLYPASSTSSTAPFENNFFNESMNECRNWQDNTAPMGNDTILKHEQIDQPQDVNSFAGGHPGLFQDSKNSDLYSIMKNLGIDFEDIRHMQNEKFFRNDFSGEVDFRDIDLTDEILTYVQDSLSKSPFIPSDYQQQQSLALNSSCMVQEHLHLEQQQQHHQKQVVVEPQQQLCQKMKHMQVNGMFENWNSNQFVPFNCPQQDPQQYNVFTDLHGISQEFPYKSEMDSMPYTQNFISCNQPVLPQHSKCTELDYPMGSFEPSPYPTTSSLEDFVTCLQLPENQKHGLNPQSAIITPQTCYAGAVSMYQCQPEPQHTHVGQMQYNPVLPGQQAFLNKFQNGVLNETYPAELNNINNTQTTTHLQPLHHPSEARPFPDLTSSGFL
Experiment: DRE-Luciferase Reporter Assay, HepG2 (agonist)
Format: cell-based
Conditions: HepG2, Table 3; read-out: DRE-Luc HepG2 - Agonist: Average EC50

COMPOUND: O=C(O)c1cccc(/N=N/c2cc(-c3csc(Nc4cccc(C(F)(F)F)c4)n3)c(F)cc2F)c1 [I-174]
EC50: 0.1 to 1 µM
--
COMPOUND: [O-][n+]1cccc(-c2cnc(Nc3cccc(C(F)(F)F)c3)o2)c1 [I-123]
EC50: > 1 µM
--
COMPOUND: N#Cc1cccc(-c2csc(Nc3cccc(C(F)(F)F)n3)n2)c1 [I-90]
EC50: < 0.01 µM
--
COMPOUND: CSc1cccc(Nc2nc(-c3cc[nH]c(=O)c3)cs2)c1 [I-142]
EC50: > 1 µM
--
COMPOUND: NC(=O)c1cccc(Nc2nc(-c3cccc([N+](=O)[O-])c3)cs2)c1 [I-82]
EC50: > 1 µM
--
COMPOUND: O=[N+]([O-])c1cccc(-c2csc(Nc3cncc(C(F)(F)F)c3)n2)c1 [I-96]
EC50: < 0.01 µM
--
COMPOUND: N#Cc1cccc(-c2nc(Nc3cccc(C(F)(F)F)c3)no2)c1 [I-152]
EC50: > 1 µM
--
COMPOUND: [O-][n+]1cccc(-c2cc(Nc3cccc(C(F)(F)F)c3)no2)c1 [I-131]
EC50: > 1 µM
--
COMPOUND: COC(=O)c1cc(-c2csc(Nc3cccc(C(F)(F)F)c3)n2)cc([N+](=O)[O-])c1 [I-108]
EC50: 0.1 to 1 µM

###

Molecular target: AHR (Mus musculus, UniProt P30561)
Sequence (P30561 whole entry F348L/P471L, form open): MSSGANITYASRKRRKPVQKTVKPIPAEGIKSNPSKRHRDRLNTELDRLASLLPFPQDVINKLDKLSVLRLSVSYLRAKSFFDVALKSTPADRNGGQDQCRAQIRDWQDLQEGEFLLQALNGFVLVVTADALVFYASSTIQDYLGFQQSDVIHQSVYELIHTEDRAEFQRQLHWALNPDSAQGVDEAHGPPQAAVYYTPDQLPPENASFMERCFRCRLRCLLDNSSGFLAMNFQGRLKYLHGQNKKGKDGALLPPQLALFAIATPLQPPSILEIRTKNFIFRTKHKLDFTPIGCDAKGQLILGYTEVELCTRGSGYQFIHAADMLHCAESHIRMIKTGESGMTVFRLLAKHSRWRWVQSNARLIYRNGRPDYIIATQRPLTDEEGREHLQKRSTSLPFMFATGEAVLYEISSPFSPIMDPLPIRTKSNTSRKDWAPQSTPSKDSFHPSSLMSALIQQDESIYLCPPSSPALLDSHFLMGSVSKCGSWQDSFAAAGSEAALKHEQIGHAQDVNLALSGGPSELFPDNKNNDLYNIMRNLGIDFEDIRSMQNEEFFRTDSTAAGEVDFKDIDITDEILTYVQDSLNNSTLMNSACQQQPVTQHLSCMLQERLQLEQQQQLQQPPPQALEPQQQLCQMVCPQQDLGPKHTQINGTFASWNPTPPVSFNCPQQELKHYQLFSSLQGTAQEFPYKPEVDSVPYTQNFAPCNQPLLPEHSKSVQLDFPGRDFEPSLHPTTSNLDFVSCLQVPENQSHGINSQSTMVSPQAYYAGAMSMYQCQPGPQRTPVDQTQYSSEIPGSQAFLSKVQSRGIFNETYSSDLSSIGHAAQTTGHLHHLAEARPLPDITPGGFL
Test: P450 CYP1A1 Luciferase Assay, Hepa1.6 (agonist)
Format: cell-based, murine
Settings: Hepa1.6, Table 2
pEC50: −log10 of the molar value.

MOLECULE: FC(F)(F)c1cccc(Nc2nc(-c3cccc(Cl)c3)cs2)c1 [Compound P-2]
pEC50: 6.00 to 7.00
//
MOLECULE: FC(F)(F)c1cccc(Nc2nc(-c3cccnc3)cs2)c1 [Compound P-8]
pEC50: 6.00 to 7.00
//
MOLECULE: C[N+](C)(CCNC(=O)N(c1cccc(C(F)(F)F)c1)c1nc(-c2cccc(Cl)c2)cs1)CCNC(=O)N(c1cccc(C(F)(F)F)c1)c1nc(-c2cccc(Cl)c2)cs1 [I-2]
pEC50: 6.00 to 7.00
//
MOLECULE: FC(F)(F)c1cccc(Nc2nc(-c3ccncc3)cs2)c1 [Compound P-6]
pEC50: < 6.00
//
MOLECULE: C[N+](C)(C)CCNC(=O)N(c1cccc(C(F)(F)F)c1)c1nc(-c2cccc([N+](=O)[O-])c2)cs1 [I-1]
pEC50: 7.00 to 8.00
//
MOLECULE: O=[N+]([O-])c1cccc(Nc2nc(-c3cccc(Cl)c3)cs2)c1 [I-38]
pEC50: < 6.00
//
MOLECULE: C[N+](C)(C)CCC(=O)Nc1cccc(-c2csc(Nc3cccc(C(F)(F)F)c3)n2)c1 [I-34]
pEC50: < 6.00
//
MOLECULE: C[N+](C)(C)CCCC(=O)N(c1cccc(C(F)(F)F)c1)c1nc(-c2cccc(Cl)c2)cs1 [I-29]
pEC50: 6.00 to 7.00
//
MOLECULE: FC(F)(F)c1cccc(Nc2cc(-c3cccc(Cl)c3)cs2)c1 [I-61]
pEC50: < 6.00
//
MOLECULE: FC(F)(F)c1cccc(Nc2nc(-c3cccc(Br)c3)cs2)c1 [Compound P-4]
pEC50: 6.00 to 7.00
//
MOLECULE: CN1CCN(C(=O)c2cccc(-c3csc(Nc4cccc(C(F)(F)F)c4)n3)c2)CC1 [I-48]
pEC50: < 6.00
//
MOLECULE: FC(F)(F)c1cccc(Nc2nc(-c3cccc(/N=N/c4cccc(-c5csc(Nc6cccc(C(F)(F)F)c6)n5)c4)c3)cs2)c1 [I-41]
pEC50: < 6.00
//
MOLECULE: C[N+](C)(CCO)CCCNC(=O)N(c1cccc(C(F)(F)F)c1)c1nc(-c2cccc(Cl)c2)cs1 [I-26]
pEC50: < 6.00
//
MOLECULE: FC(F)(F)c1cncc(Nc2nc(-c3cccc(Cl)c3)cs2)c1 [I-5]
pEC50: < 6.00

###

Each entry below carries its reported pEC50.
Biological target: UniProt:P30561
Assay: DRE-Luciferase Reporter Assay, Hepa1.6 (agonist)
Type: cell-based, murine
Settings: Hepa1.6, Table 3; read-out: DRE-Luc Hepa1.6 - Agonist: Average EC50
Method: DRE-Luciferase Reporter Assay AHR binds to Dioxin Responsive Elements (DRE) upstream of genes that it activates. One measure of AHR activity is activation of a reporter gene, such as luciferase, downstream of one or multiple DRE elements. […] The next day, an AHR agonist compound is added. Cells are incubated for 6, 16 or 24 hours or another time point and then lysed for determination of luciferase activity as a read-out of the AHR activation. […]
pEC50: −log10 of the molar value.

SMILES TEXT: O=C(O)c1cccc(/N=N/c2cc(-c3csc(Nc4cccc(C(F)(F)F)c4)n3)c(F)cc2F)c1
TEST TARGET: UniProt:P30561
pEC50: 6.00 to 7.00

SMILES TEXT: Nc1ccccc1-c1csc(Nc2ccccc2C(F)(F)F)n1
TEST TARGET: UniProt:P30561
pEC50: < 6.00

SMILES TEXT: C[N+](C)(CCNC(=O)N(c1cccc(C(F)(F)F)c1)c1nc(-c2cccc([N+](=O)[O-])c2)cs1)CCNC(=O)N(c1cccc(C(F)(F)F)c1)c1nc(-c2cccc([N+](=O)[O-])c2)cs1
TEST TARGET: UniProt:P30561
pEC50: 6.00 to 7.00

SMILES TEXT: N#Cc1cncc(-c2csc(Nc3cccc(C(F)(F)F)c3)n2)c1
TEST TARGET: UniProt:P30561
pEC50: < 6.00

SMILES TEXT: O=C(O)c1cc(/N=N/c2cccc(-c3csc(Nc4cccc(C(F)(F)F)c4)n3)c2)cc(C(=O)O)c1
TEST TARGET: UniProt:P30561
pEC50: < 6.00

SMILES TEXT: COC(=O)COc1cc(-c2csc(Nc3cccc(C(F)(F)F)c3)n2)ccn1
TEST TARGET: UniProt:P30561
pEC50: < 6.00

SMILES TEXT: [O-][n+]1cc(Cl)cc(-c2csc(Nc3cccc(C(F)(F)F)c3)n2)c1
TEST TARGET: UniProt:P30561
pEC50: < 6.00

SMILES TEXT: N#Cc1cccc(-c2nc(Nc3cccc(C(F)(F)F)c3)no2)c1
TEST TARGET: UniProt:P30561
pEC50: < 6.00

SMILES TEXT: O=C(O)c1cc(/N=N/c2cc(-c3csc(Nc4cccc(C(F)(F)F)c4)n3)ccc2F)ccc1O
TEST TARGET: UniProt:P30561
pEC50: < 6.00

SMILES TEXT: FC(F)(F)c1cccc(Nc2nc(-c3cncc(NNc4cncc(-c5csc(Nc6cccc(C(F)(F)F)c6)n5)c4)c3)cs2)c1
TEST TARGET: UniProt:P30561
pEC50: 6.00 to 7.00

SMILES TEXT: O=[N+]([O-])c1cccc(-c2csc(Nc3cccc(C(F)(F)F)n3)n2)c1
TEST TARGET: UniProt:P30561
pEC50: < 6.00

SMILES TEXT: COc1cc(-n2cnc(Nc3cccc(C(F)(F)F)c3)n2)ccn1
TEST TARGET: UniProt:P30561
pEC50: < 6.00

SMILES TEXT: O=C(Nc1cncc(-c2csc(Nc3cccc(C(F)(F)F)c3)n2)c1)Nc1cncc(-c2csc(Nc3cccc(C(F)(F)F)c3)n2)c1
TEST TARGET: UniProt:P30561
pEC50: 7.00 to 8.00

SMILES TEXT: [O-][n+]1cccc(-c2nsc(Nc3cccc(C(F)(F)F)c3)n2)c1
TEST TARGET: UniProt:P30561
pEC50: < 6.00

SMILES TEXT: N#Cc1cc(-c2csc(Nc3cccc(C(F)(F)F)c3)n2)c[n+]([O-])c1
TEST TARGET: UniProt:P30561
pEC50: < 6.00

SMILES TEXT: Nc1ccc(F)c(-c2csc(Nc3cccc(C(F)(F)F)c3)n2)c1
TEST TARGET: UniProt:P30561
pEC50: > 8.00

SMILES TEXT: CCCOc1cc(-c2csc(Nc3cccc(C(F)(F)F)c3)n2)ccn1
TEST TARGET: UniProt:P30561
pEC50: < 6.00

SMILES TEXT: O=c1cc(-c2nsc(Nc3cccc(C(F)(F)F)c3)n2)cc[nH]1
TEST TARGET: UniProt:P30561
pEC50: < 6.00

SMILES TEXT: CN(C)c1cc(-c2csc(Nc3cccc(C(F)(F)F)c3)n2)ccn1
TEST TARGET: UniProt:P30561
pEC50: < 6.00

SMILES TEXT: NC(=O)c1cccc(Nc2nc(-c3ccc[n+]([O-])c3)cs2)c1
TEST TARGET: UniProt:P30561
pEC50: < 6.00

SMILES TEXT: O=C(O)c1cc(/N=N/c2cccc(-c3csc(Nc4cccc(C(F)(F)F)c4)n3)c2)ccc1O
TEST TARGET: UniProt:P30561
pEC50: < 6.00

SMILES TEXT: N#Cc1cccc(-c2cnc(Nc3cccc(C(F)(F)F)c3)o2)c1
TEST TARGET: UniProt:P30561
pEC50: < 6.00

SMILES TEXT: C[N+](C)(C)CCNC(=O)N(c1cccc(C(F)(F)F)c1)c1nc(-c2cc[nH]c(=O)c2)cs1
TEST TARGET: UniProt:P30561
pEC50: < 6.00

SMILES TEXT: [O-][n+]1cccc(-c2csc(Nc3cccc(C(F)(F)F)n3)n2)c1
TEST TARGET: UniProt:P30561
pEC50: < 6.00

SMILES TEXT: Fc1ccc(/N=N/c2ccc(F)c(-c3csc(Nc4cccc(C(F)(F)F)c4)n3)c2)cc1-c1csc(Nc2cccc(C(F)(F)F)c2)n1
TEST TARGET: UniProt:P30561
pEC50: 6.00 to 7.00

SMILES TEXT: Nc1cc(-c2csc(Nc3cccc(C(F)(F)F)c3)n2)ccn1
TEST TARGET: UniProt:P30561
pEC50: > 8.00

SMILES TEXT: Nc1ccnc(-c2csc(Nc3cccc(C(F)(F)F)c3)n2)c1
TEST TARGET: UniProt:P30561
pEC50: < 6.00

SMILES TEXT: [O-][n+]1cccc(-n2cnc(Nc3cccc(C(F)(F)F)c3)n2)c1
TEST TARGET: UniProt:P30561
pEC50: < 6.00

SMILES TEXT: CSc1cccc(Nc2nc(-c3cccc([N+](=O)[O-])c3)cs2)c1
TEST TARGET: UniProt:P30561
pEC50: 6.00 to 7.00

SMILES TEXT: O=[N+]([O-])c1cc(-c2csc(Nc3cccc(C(F)(F)F)c3)n2)c[n+]([O-])c1
TEST TARGET: UniProt:P30561
pEC50: 6.00 to 7.00

SMILES TEXT: C[N+](C)(C)CCOc1cc(-c2csc(Nc3cccc(C(F)(F)F)c3)n2)ccn1
TEST TARGET: UniProt:P30561
pEC50: 6.00 to 7.00

SMILES TEXT: N#Cc1cccc(-n2cnc(Nc3cccc(C(F)(F)F)c3)n2)c1
TEST TARGET: UniProt:P30561
pEC50: < 6.00

SMILES TEXT: N#Cc1cccc(-c2csc(Nc3cccc(C(F)(F)F)n3)n2)c1
TEST TARGET: UniProt:P30561
pEC50: < 6.00

SMILES TEXT: N#Cc1cccc(-c2csc(Nc3cncc(C(F)(F)F)c3)n2)c1
TEST TARGET: UniProt:P30561
pEC50: 7.00 to 8.00

SMILES TEXT: O=C(O)c1cc(/N=N/c2ccc(F)c(-c3csc(Nc4cccc(C(F)(F)F)c4)n3)c2)ccc1O
TEST TARGET: UniProt:P30561
pEC50: < 6.00
